- Test system: DU-145 prostate
- measurement_description: NCI-60 one-dose screen, 48 h
- test_parameters: 10 µM unless noted
Compounds without any hit were thinned out: in the full panel of roughly 83,000, 20% have a hit. Calls of active or inactive are those of the source. The calls were made as follows: active = growth percent below 10; inactive = the rest.
// allowed return values: label 1 = active, label 0 = inactive

Answered examples (2):
{"columns": ["molecule", "label"],
 "data": [
  ["O=C1CC(c2ccsc2)c2snc(-c3ccc(Cl)cc3)c2N1 (stereo unspecified)", "label 0"],
  ["COc1cccc(-c2ccc3c(c2)C2CCN(Cc4ccccc4)C3C2)c1 (stereo unspecified)", "label 0"]
]}

State the result this test recorded for COc1cc(NC(=O)COc2ccccc2)c(C(N)=O)cc1OC .
label 0

---

- System: A498 renal
- measurement_description: NCI-60 one-dose screen, 48 h
- test_parameters: 10 µM unless noted
The panel holds about 83,000 compounds, 20% with a hit somewhere; the sample as a whole holds those more often. Activity calls are given as the source filed them. The calls were made as follows: active = growth percent below 10; inactive = the rest.
Allowed answers: active, inactive

{"columns": ["compound", "label"],
 "data": [
  ["CCCC1=NNC(=O)C1", "inactive"],
  ["COc1cc(/C=C/C(=O)CC(=O)/C=C/c2cc(Br)c(OC)c(OC)c2)cc(Br)c1OC", "inactive"]
]}

Field: outcome | Entry: O=C(NCc1cccnc1)c1ccc([N+](=O)[O-])o1
active

Please share the test call associated with Cn1c2c(cc(S(=O)(=O)c3ccccc3)c1=O)CCc1c-2cnn1-c1cccc(Cl)c1 .
inactive

Hey, what did the test say about NC(=O)c1cc(I)ccc1NC(=O)COc1ccccc1 ?
active

Which result was noted for this compound in the test: COc1cc(-c2nc3ccccc3o2)cc(CN2CCN(c3ccccc3)CC2)c1O
inactive

Recorded call for c1ccc(-c2n(Cc3ccc4ccccc4n3)c3ccccc3[n+]2Cc2ccc3ccccc3n2)cc1 ?
active

Can you look up the reported call for COc1cc(Cn2cc(F)c(=O)[nH]c2=O)cc(OC)c1 for me?
inactive

What call does the record list for CC(C)NCC(O)COc1ccc(CCOCC2CC2)cc1 (stereo unspecified) ?
inactive

Write down the call the test reported for this compound. Item: Clc1ccccc1Nc1ccc2nnc(-c3ccncc3)n2n1
inactive

What did this assay record as the result for O=c1[nH]c(=S)[nH]c(=O)n1Cc1cccc2ccccc12 ?
inactive

Please state the recorded outcome for this compound: COC(=O)/C=C1/CCC2C3CCC4=CC(=O)C(Br)CC4(C)C3C(=O)CC12C (stereo unspecified)
inactive

Which result was noted for this compound in the test: Cc1ccccc1-n1nnc(C(=O)Nc2ccc(-c3ccccc3)cn2)c1C
inactive

What is the recorded call for this compound in the test? COc1ccc(-c2nc(Nc3ccc(F)cc3)nc(Nc3ccc4c(c3)nc(C)n4Cc3ccccc3)n2)cc1
inactive

Check the results log: what was the call for COc1ccc(S(=O)(=O)ON=C2C=C(C)C(=O)C(C)=C2)cc1 ?
inactive

Give the logged outcome of this assay for the following compound: Cc1ccc(S(=O)(=O)N2CCc3ccc(O)c4c3C2Cc2cc(Cl)ccc2-4)cc1 (stereo unspecified)
inactive

Field: outcome | Entry: COc1ccc(-c2cc(=O)oc3c4c(ccc23)OCN(Cc2ccc(F)cc2)C4)cc1
inactive

Per the records of this test, what outcome belongs to O=C(N/N=C/c1ccc(F)cc1)c1[nH]c2ccc(I)cc2c1-c1ccccc1 ?
inactive

---

- Tested on: CAKI-1 renal
- measurement_description: NCI-60 one-dose screen, 48 h (100 = growth as untreated, 0 = no growth, -100 = all killed)
- test_parameters: 10 µM unless noted
Compounds without any hit were thinned out: in the full panel of roughly 83,000, 20% have a hit.
Parameter growth: see the listing below.
Field format: number, assumed %, no unit text.

The cases that follow already have their growth on record.
{"columns": ["compound", "growth [%]"],
 "data": [
  ["Clc1ccc(Nc2ccnc(N3CCN(c4ccnc5cc(Cl)ccc45)CC3)n2)cc1", 34.8],
  ["CSC1=CC(=O)c2ccccc2C1=O", 33.6],
  ["O=C1/C(=C/c2ccccc2F)CNC/C1=C\\c1ccccc1F", -52.5],
  ["COc1nc2c(cc1S(=O)(=O)c1ccccc1)CCc1c-2cnn1-c1cccc(Cl)c1", 63.5],
  ["COc1cc(CNCCN2C(=O)c3ccc4c5c(ccc(c35)C2=O)C(=O)N(CCNCc2cc(OC)c(OC)c(OC)c2)C4=O)cc(OC)c1OC", -70],
  ["CC(=O)Nc1ccccc1-c1n[nH]c(=O)[nH]c1=O", 83],
  ["Cc1ccc(S(=O)(=O)N2CCc3ccc(O)c4c3C2CCc2ccccc2-4)cc1 (stereo not given)", 88.3],
  ["O=C(COc1cccc(/C=C2\\COc3ccccc3C2=O)c1)c1ccccc1", 53.2]
]}

Quote growth reported for COC(=O)c1c2c(c(C)[n+]([O-])c1C)C(=O)C=C(NCc1cccc(Cl)c1)C2=O please.
-14.3

Tell me measured growth for O=C(NCc1ccc(F)cc1)C1CN(c2ccc(Cl)cc2)N(c2ccc(Cl)cc2)C1=O (stereo not given) please.
57.6

---

- Tested on: HS 578T breast
- measurement_description: NCI-60 one-dose screen, 48 h (100 = growth as untreated, 0 = no growth, -100 = all killed)
- test_parameters: 10 µM unless noted
- Protocol: Growth inhibition of the HS 578T human tumor cell line is measured as a screen for anti-cancer activity. Cells are grown in 96 well plates and exposed to the test compound for 48 hours. Compounds are tested at a single concentration, which is 10^-5 M for most compounds. The reported endpoint is percent growth (GI% or GIPRCNT), where numbers from 0 - 100% represent growth inhibition, and numbers from -100% - 0 represent cell death. For example, a value of 40 represents 60% growth inhibition. […]
About 83,000 compounds went through this panel and 20% of them were active in at least one assay; those are over-represented in the sample as a whole. Calls of active or inactive are those of the source. Rule for the calls: active = growth percent below 10; inactive = the rest.
This section presents compounds with their documented growth values.

Here are 10 compounds together with their reported answers.
{"columns": ["compound", "growth"],
 "data": [
  ["O=c1[nH]c(-c2ccncc2)nc2sc3c(c12)CCCCCC3", "85.9% (inactive)"],
  ["Cc1c(C(=O)Nc2nc(-c3ccccc3)cs2)nnn1-c1ccccc1Br", "65.3% [50 µM] (inactive)"],
  ["Cn1c2ccccc2c2nn(Cc3ccccc3)c(=O)nc21", "106% (inactive)"],
  ["COC(=O)c1c2c(c(C)[n+]([O-])c1C)C(=O)C=C(NCc1cccc(OC)c1)C2=O", "-22.2% (active)"],
  ["CC(=O)OC[C@]1(C)C=C2C(=O)[C@](C)(O)C3(CC3)C(C)=C2[C@H]1OC(C)=O", "96% (inactive)"],
  ["O=C(c1ccc2ncc(-c3nc(NC4CC4)ncc3F)n2c1)N1CCOCC1", "4.89% (active)"],
  ["CCOC(=O)c1[nH]c2cc(Cl)ccc2c1[C@@H](C(=O)NC(C)(C)C)N(CC)C(=O)CCCCC#Cc1cccc2c1CN(C1CCC(=O)NC1=O)C2=O (stereo partly specified)", "-12.6% (active)"],
  ["COc1ccc(Sc2ccc3[nH]c(=O)nc(N)c3c2)cc1", "106% (inactive)"],
  ["COc1ccc(/C=C2\\SC(=O)N(CN3CCN(c4cc5c(cc4F)c(=O)c(C(=O)O)cn5C4CC4)CC3)C2=O)cc1", "108% (inactive)"],
  ["COc1cc(Cn2cc(F)c(=O)[nH]c2=O)cc(OC)c1", "96.7% [50 µM] (inactive)"]
]}

Supply reported growth belonging to this compound: COC(=O)c1c2c(c(C)[n+]([O-])c1C)C(=O)C=C(NCc1ccc(Cl)cc1)C2=O
-19% (active)

Quick one: give measured growth for COc1cc2cc(Oc3ccc(NC(=O)Nc4ccc(Cl)c(C(F)(F)F)c4)cc3)c(C)nc2cc1OCCN1CCCCC1
-44.5% (active)

Please look at this compound and report its growth: COc1ccc(-c2c3c(N)c4c(nc3nc3c2c(C)nn3-c2ccccc2)CCCC4)cc1
92.5% (inactive)

Return growth for the following compound: CC(=O)Nc1ccccc1-c1n[nH]c(=O)[nH]c1=O
77.9% (inactive)

Identify the reported growth for the following entry. COc1cccc(C2CC(=O)Nc3cc4c(cc32)OCO4)c1OC (stereo unspecified)
93.1% (inactive)

Please give measured growth of the following entry: CC1=CN2C(=NC3=C(CCCC/C3=C\c3ccccc3)C2c2ccccc2)S1 (stereo unspecified)
92.8% (inactive)

Retrieve growth measured for O=[N+]([O-])c1ccc2nc(N/N=C/c3ccc(O)cc3)sc2c1 and print it.
83.5% (inactive)

Please give the documented growth of Cc1nc2cc(Nc3nc(NCCN)nc(Nc4ccc(F)cc4)n3)ccc2n1Cc1ccccc1
102% (inactive)

For the compound Cn1c(=O)c2c(-c3ccccc3F)n(-c3ccc4c(c3)OCO4)cc2n(C)c1=O , give its measured growth value.
88.2% (inactive)

Give me measured growth, please, for this compound: N#Cc1ccc(C(F)(F)F)nc1N1CCC(C(=O)Nc2ccc(Cl)cc2)CC1
105% (inactive)

Consider the compound CN(C)C(=S)SCN1C(=O)c2ccc([N+](=O)[O-])cc2S1(=O)=O and give its recorded growth.
93% (inactive)
